# Test system: Plasmopara viticola
# Type: in vivo
# cond: 7-8 days at 20° C.
observed-property: percent disease control, GDM (%)
Report only the number, with the unit % understood.

The examples below pair each entry with its known result.
compound | experimental-value
CCC(C)(NC(=O)c1ccc2ocnc2c1)C(=O)CCl (centres unmarked) | 100
CCC(C)(NC(=O)c1ccc2[nH]ccc2c1)C(=O)CCl (centres unmarked) | 100
CCC(C)(NC(=O)c1cc(Cl)c2ncoc2c1)C(=O)CCl (centres unmarked) | 100
CCC(C)(NC(=O)c1ccc2c(c1)CCO2)C(=O)CCl (centres unmarked) | 0

In the following, a different compound is considered.
Task: // Input: CCC(C)(NC(=O)c1cc(Cl)c2nc(C)oc2c1)C(=O)CCl (centres unmarked) . Output its percent disease control, GDM only.
Output: 90
